# shrunken log2 fold change per record follows
# Tested on: Escherichia coli TOP10
# assayInfo: shrunken log2 fold change of peptide-encoding DNA abundance (4.5 h post-induction vs induction); higher = less antimicrobial activity (less host growth inhibition)
# conditionInfo: time post-induction: 4.5 h; library: site-saturation at positions 5, 18, 19, 20
measurementLabel: shrunken log2 fold change

querySequence	measurementLabel	readoutValue
RRIRLRPPRLPRPRPRPEGTPRP	shrunken log2 fold change	0.241
RRIRYRPPRLPRPRPRPIWWPRP	shrunken log2 fold change	0.136
RRIRCRPPRLPRPRPRPACPPRP	shrunken log2 fold change	-0.136
RRIRCRPPRLPRPRPRPGGGPRP	shrunken log2 fold change	0.76
RRIRCRPPRLPRPRPRPQNPPRP	shrunken log2 fold change	-0.144
RRIRMRPPRLPRPRPRPYQMPRP	shrunken log2 fold change	0.119
RRIRGRPPRLPRPRPRPANWPRP	shrunken log2 fold change	0.731
RRIRTRPPRLPRPRPRPMKNPRP	shrunken log2 fold change	-0.146
RRIRCRPPRLPRPRPRPPHKPRP	shrunken log2 fold change	0.68
RRIRVRPPRLPRPRPRPLCQPRP	shrunken log2 fold change	0.258
RRIRWRPPRLPRPRPRPFHRPRP	shrunken log2 fold change	-0.2
RRIRTRPPRLPRPRPRPEDWPRP	shrunken log2 fold change	0.386
RRIRFRPPRLPRPRPRPQMDPRP	shrunken log2 fold change	0.0317
RRIRLRPPRLPRPRPRPHWRPRP	shrunken log2 fold change	0.147
RRIRERPPRLPRPRPRPGEWPRP	shrunken log2 fold change	0.0118
RRIRNRPPRLPRPRPRPSNQPRP	shrunken log2 fold change	-0.299
RRIRDRPPRLPRPRPRPNLWPRP	shrunken log2 fold change	-0.0934
RRIRWRPPRLPRPRPRPESIPRP	shrunken log2 fold change	0.2
RRIRWRPPRLPRPRPRPIDAPRP	shrunken log2 fold change	0.0128
RRIRFRPPRLPRPRPRPLNQPRP	shrunken log2 fold change	-0.282
RRIRTRPPRLPRPRPRPCIGPRP	shrunken log2 fold change	-0.0176
RRIRMRPPRLPRPRPRPPFMPRP	shrunken log2 fold change	0.296
RRIRDRPPRLPRPRPRPSKYPRP	shrunken log2 fold change	-0.455
RRIRLRPPRLPRPRPRPDECPRP	shrunken log2 fold change	0.0277
RRIRDRPPRLPRPRPRPFCLPRP	shrunken log2 fold change	0.0132
RRIRARPPRLPRPRPRPSHYPRP	shrunken log2 fold change	-0.0225
RRIRRRPPRLPRPRPRPHHIPRP	shrunken log2 fold change	-0.637
RRIRARPPRLPRPRPRPTKEPRP	shrunken log2 fold change	0.0091
RRIRSRPPRLPRPRPRPSYFPRP	shrunken log2 fold change	-0.687
RRIRERPPRLPRPRPRPSVVPRP	shrunken log2 fold change	-0.213
RRIRVRPPRLPRPRPRPTRLPRP	shrunken log2 fold change	0.568
RRIRGRPPRLPRPRPRPQHSPRP	shrunken log2 fold change	-0.0223

* * *

Below: a set of entries, each annotated with reported shrunken log2 fold change.
# System: Escherichia coli TOP10
# assayInfo: shrunken log2 fold change of peptide-encoding DNA abundance (4.5 h post-induction vs induction); higher = less antimicrobial activity (less host growth inhibition)
# conditionInfo: time post-induction: 4.5 h; library: site-saturation at positions 5, 18, 19, 20
measurementLabel: shrunken log2 fold change

querySequence	readoutValue
RRIRVRPPRLPRPRPRPRIHPRP	-0.219
RRIRWRPPRLPRPRPRPNSPPRP	-0.255
RRIRRRPPRLPRPRPRPNVPPRP	0.032
RRIRMRPPRLPRPRPRPQQVPRP	0.00763
RRIRARPPRLPRPRPRPYEVPRP	-0.0785
RRIRHRPPRLPRPRPRPCIEPRP	-0.00547
RRIRYRPPRLPRPRPRPQREPRP	-0.00996
RRIRFRPPRLPRPRPRPCHMPRP	-0.285
RRIRNRPPRLPRPRPRPHLSPRP	-0.259
RRIRVRPPRLPRPRPRPPSTPRP	0.238
RRIRCRPPRLPRPRPRPSVSPRP	-0.185
RRIRTRPPRLPRPRPRPHPWPRP	-0.0609
RRIRHRPPRLPRPRPRPCQKPRP	-0.0102
RRIRARPPRLPRPRPRPTRWPRP	0.539
RRIRQRPPRLPRPRPRPEDSPRP	-0.0908

* * *

# Test system: Escherichia coli TOP10
# assayInfo: shrunken log2 fold change of peptide-encoding DNA abundance (4.5 h post-induction vs induction); higher = less antimicrobial activity (less host growth inhibition)
# conditionInfo: time post-induction: 4.5 h; library: site-saturation at positions 5, 18, 19, 20
Give true when the value for shrunken log2 fold change is at least -0.005. Give false when it is less.

querySequence	testedOn	classAssignment
RRIRVRPPRLPRPRPRPWLSPRP	Escherichia coli TOP10	false
RRIRVRPPRLPRPRPRPESAPRP	Escherichia coli TOP10	true
RRIRGRPPRLPRPRPRPMLDPRP	Escherichia coli TOP10	true
RRIRCRPPRLPRPRPRPLLDPRP	Escherichia coli TOP10	true
RRIRPRPPRLPRPRPRPGTAPRP	Escherichia coli TOP10	true
RRIRNRPPRLPRPRPRPHCPPRP	Escherichia coli TOP10	false
RRIRLRPPRLPRPRPRPCRHPRP	Escherichia coli TOP10	false
RRIRPRPPRLPRPRPRPKRFPRP	Escherichia coli TOP10	true
RRIRRRPPRLPRPRPRPEWRPRP	Escherichia coli TOP10	true
RRIRVRPPRLPRPRPRPIEVPRP	Escherichia coli TOP10	false
RRIRIRPPRLPRPRPRPDGGPRP	Escherichia coli TOP10	false
RRIRPRPPRLPRPRPRPFYVPRP	Escherichia coli TOP10	false
RRIRWRPPRLPRPRPRPIAIPRP	Escherichia coli TOP10	false
RRIRARPPRLPRPRPRPNCYPRP	Escherichia coli TOP10	false
RRIRIRPPRLPRPRPRPSSFPRP	Escherichia coli TOP10	false
RRIRRRPPRLPRPRPRPPHHPRP	Escherichia coli TOP10	true
RRIRCRPPRLPRPRPRPCVGPRP	Escherichia coli TOP10	false
RRIRVRPPRLPRPRPRPWAEPRP	Escherichia coli TOP10	false
RRIRLRPPRLPRPRPRPIKTPRP	Escherichia coli TOP10	false
RRIRDRPPRLPRPRPRPQPEPRP	Escherichia coli TOP10	true
RRIRERPPRLPRPRPRPDRMPRP	Escherichia coli TOP10	false
RRIRRRPPRLPRPRPRPLRMPRP	Escherichia coli TOP10	true
RRIRKRPPRLPRPRPRPVWAPRP	Escherichia coli TOP10	true
RRIRYRPPRLPRPRPRPCDAPRP	Escherichia coli TOP10	false
RRIRERPPRLPRPRPRPQCRPRP	Escherichia coli TOP10	false
RRIRLRPPRLPRPRPRPLCDPRP	Escherichia coli TOP10	false
RRIRDRPPRLPRPRPRPYVIPRP	Escherichia coli TOP10	false
RRIRARPPRLPRPRPRPYITPRP	Escherichia coli TOP10	false
RRIRERPPRLPRPRPRPYYFPRP	Escherichia coli TOP10	false
RRIRNRPPRLPRPRPRPHYWPRP	Escherichia coli TOP10	false
RRIRERPPRLPRPRPRPFSLPRP	Escherichia coli TOP10	false

* * *

# Test system: Escherichia coli TOP10;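 note: peptides expressed intracellularly from a pBAD plasmid library in pooled LB shake-flask culture, induced with 0.3% L-arabinose, DNA abundance read by NGS, three biological replicates, DESeq2 with apeglm shrinkage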
# assayInfo: shrunken log2 fold change of peptide-encoding DNA abundance (4.5 h post-induction vs induction); higher = less antimicrobial activity (less host growth inhibition)
# conditionInfo: time post-induction: 4.5 h; library: site-saturation at positions 5, 18, 19, 20
measurementLabel: shrunken log2 fold change

querySequence	readoutValue
RRIRTRPPRLPRPRPRPKERPRP	-0.0679
RRIRCRPPRLPRPRPRPPRYPRP	0.753
RRIRDRPPRLPRPRPRPTSTPRP	0.231
RRIRCRPPRLPRPRPRPDKQPRP	-0.0405
RRIRDRPPRLPRPRPRPAIHPRP	0.00344
RRIRKRPPRLPRPRPRPWMPPRP	0.0548
RRIRIRPPRLPRPRPRPCMCPRP	-0.422
RRIRCRPPRLPRPRPRPFSDPRP	-0.165
RRIRPRPPRLPRPRPRPTACPRP	0.338
RRIRIRPPRLPRPRPRPKCRPRP	-0.452
RRIRGRPPRLPRPRPRPRYWPRP	0.248
RRIRIRPPRLPRPRPRPQAFPRP	-0.0625
RRIRERPPRLPRPRPRPFLMPRP	-0.209
RRIRKRPPRLPRPRPRPVHHPRP	-0.0438
RRIRRRPPRLPRPRPRPHQKPRP	0.474
RRIRTRPPRLPRPRPRPVTYPRP	0.0141
RRIRSRPPRLPRPRPRPAFWPRP	0.651
RRIRPRPPRLPRPRPRPPTPPRP	0.417
RRIRLRPPRLPRPRPRPHNIPRP	-0.049
RRIRPRPPRLPRPRPRPHREPRP	-0.176
RRIRMRPPRLPRPRPRPCQPPRP	-0.0351
RRIRGRPPRLPRPRPRPLMWPRP	0.4
RRIRIRPPRLPRPRPRPVNDPRP	-0.00973
RRIRERPPRLPRPRPRPGCRPRP	0.0043
RRIRRRPPRLPRPRPRPSPPPRP	0.435
RRIRCRPPRLPRPRPRPPIRPRP	0.0846
RRIRQRPPRLPRPRPRPLPFPRP	-0.782
RRIRWRPPRLPRPRPRPMGMPRP	0.403
RRIRHRPPRLPRPRPRPPDWPRP	0.536
RRIRIRPPRLPRPRPRPTREPRP	0.255
RRIRWRPPRLPRPRPRPMLYPRP	0.0136
RRIRSRPPRLPRPRPRPGTCPRP	0.148

Cited source: the supplement of paper PMC9112550
